biological target: EGFR (T790M/L858R) (Homo sapiens, UniProt P00533, L858R/T790M); experiment: EGFR (T790M/L858R) kinase activity inhibition, Caliper mobility shift assay
Sequence (P00533 25-1210 T790M/L858R): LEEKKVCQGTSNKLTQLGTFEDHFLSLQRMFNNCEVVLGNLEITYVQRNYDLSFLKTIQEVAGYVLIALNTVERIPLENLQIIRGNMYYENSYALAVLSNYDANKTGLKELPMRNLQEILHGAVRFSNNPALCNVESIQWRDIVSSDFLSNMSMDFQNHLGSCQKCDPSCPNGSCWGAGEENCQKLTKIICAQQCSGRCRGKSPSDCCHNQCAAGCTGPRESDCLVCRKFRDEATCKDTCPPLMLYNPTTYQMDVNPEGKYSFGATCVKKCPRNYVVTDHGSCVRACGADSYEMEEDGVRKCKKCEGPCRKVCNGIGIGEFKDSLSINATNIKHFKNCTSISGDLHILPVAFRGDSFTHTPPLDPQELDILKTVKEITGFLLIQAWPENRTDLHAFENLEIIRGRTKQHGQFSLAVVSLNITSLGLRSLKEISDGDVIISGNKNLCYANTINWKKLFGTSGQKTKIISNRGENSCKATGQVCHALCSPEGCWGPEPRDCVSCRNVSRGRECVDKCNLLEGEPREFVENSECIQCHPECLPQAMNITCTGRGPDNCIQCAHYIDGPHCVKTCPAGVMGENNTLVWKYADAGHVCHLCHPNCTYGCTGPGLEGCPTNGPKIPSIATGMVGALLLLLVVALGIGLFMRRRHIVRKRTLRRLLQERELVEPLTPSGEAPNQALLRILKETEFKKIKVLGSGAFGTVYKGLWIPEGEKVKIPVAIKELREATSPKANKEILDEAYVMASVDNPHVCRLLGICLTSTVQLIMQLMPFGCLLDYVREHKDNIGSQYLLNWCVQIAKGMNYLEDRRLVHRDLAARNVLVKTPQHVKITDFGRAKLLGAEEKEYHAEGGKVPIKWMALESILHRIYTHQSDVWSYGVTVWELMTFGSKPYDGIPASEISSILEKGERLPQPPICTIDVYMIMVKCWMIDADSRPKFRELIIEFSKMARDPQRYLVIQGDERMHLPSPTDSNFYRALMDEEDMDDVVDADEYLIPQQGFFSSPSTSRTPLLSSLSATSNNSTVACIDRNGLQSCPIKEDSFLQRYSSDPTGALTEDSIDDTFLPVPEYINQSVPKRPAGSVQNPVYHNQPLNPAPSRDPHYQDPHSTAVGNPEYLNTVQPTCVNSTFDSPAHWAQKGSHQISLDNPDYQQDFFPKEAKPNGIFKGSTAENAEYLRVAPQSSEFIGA
pIC50: −log10 of the molar value.
observationType: pIC50

| compound | endpointValue |
| --- | --- |
| C=CC(=O)Nc1cccc(Nc2nc(Nc3ccc4c(c3)OC[C@H]3CN(CC(F)(F)F)CCN43)ncc2C(F)(F)F)c1 | > 7.30 |
| C=CC(=O)Nc1cccc(Nc2nc(Nc3ccc4c(c3)OC[C@@H]3CN(C(C)=O)CCN43)ncc2C(F)(F)F)c1 | > 8.00 |
| C=CC(=O)Nc1cccc(Nc2nc(Nc3ccc4c(c3)OCC3CN(C)CCN43)ncc2C(F)(F)F)c1 (stereo not shown) | > 8.00 |
| C=CC(=O)Nc1cccc(Nc2nc(Nc3ccc4c(c3)OC[C@@H]3CNCCN43)ncc2C(F)(F)F)c1 | > 9.00 |
| C=CC(=O)Nc1cccc(Nc2nc(Nc3ccc4c(c3)OC[C@H]3CNCCN43)ncc2C(F)(F)F)c1 | > 9.00 |
| C=CC(=O)Nc1cccc(Nc2nc(Nc3ccc4c(c3)OC[C@@H]3CN(C)CCN43)ncc2C(F)(F)F)c1 | > 9.00 |
| C=CC(=O)Nc1cccc(Nc2nc(Nc3ccc4c(c3)OC[C@H]3CN(CC)CCN43)ncc2C(F)(F)F)c1 | > 9.00 |

---

experiment: Pharmacokinetic study in mice, intragastric administration; type: in vivo; conditions: mouse; male ICR mice, PO dose 5 mg/kg, plasma
The entries below are paired with their reported Tmax.
observationType: Tmax (min)

| compound | endpointValue |
| --- | --- |
| Cc1nc2c(F)cc(-c3nc(Nc4ccc5c(c4)OC[C@H]4CN(C6CCOCC6)CCN54)ncc3F)cc2n1C(C)C | 60 |
| NC(=O)c1cnc(Nc2ccc3c(c2)OC[C@H]2CN(S(=O)(=O)C4CC4)CCN32)nc1NC1CC1 [Compound C10R] | 30 |

---

Record type: IC50 measurement. Applies to: Jak2 (Homo sapiens, UniProt O60674)

| compound | systemUnderTest | IC50 |
| --- | --- | --- |
| NC(=O)c1cnc(Nc2ccc3c(c2)OCC2COCCN32)nc1NC1CC1 (stereo not shown) [Compound C18R] | Jak2 (Homo sapiens, UniProt O60674) | < 50 nM |
| CS(=O)(=O)N1CCN2c3ccc(Nc4ncc(C(N)=O)c(NC5CC5)n4)cc3OC[C@H]2C1 [Compound C11R] | Jak2 (Homo sapiens, UniProt O60674) | < 10 nM |
| CC(C)S(=O)(=O)N1CCN2c3ccc(Nc4ncc(C(N)=O)c(NC5CC5)n4)cc3OC[C@H]2C1 [Compound C12R] | Jak2 (Homo sapiens, UniProt O60674) | < 10 nM |
| CCS(=O)(=O)N1CCN2c3ccc(Nc4ncc(C(N)=O)c(NC5CC5)n4)cc3OC[C@H]2C1 | Jak2 (Homo sapiens, UniProt O60674) | < 10 nM |
| CN1CCN2c3ccc(Nc4ncc(C(N)=O)c(NC5CC5)n4)cc3OC[C@H]2C1 | Jak2 (Homo sapiens, UniProt O60674) | < 10 nM |
| NC(=O)c1cnc(Nc2ccc3c(c2)OC[C@H]2CN(S(=O)(=O)C4CC4)CCN32)nc1NC1CC1 [Compound C10R] | Jak2 (Homo sapiens, UniProt O60674) | < 10 nM |
| CC(C)(C)OC(=O)N1CCN2c3ccc(Nc4ncc(C(N)=O)c(NC5CC5)n4)cc3OC[C@H]2C1 | Jak2 (Homo sapiens, UniProt O60674) | < 50 nM |
